Listed next: entries and their corresponding IC50.
Target: sodium-proton exchanger of subtype 3 (NHE3) (Homo sapiens, UniProt P48764)
Construct: expressed in transfected cells
Sequence (P48764 26-834, species assumed): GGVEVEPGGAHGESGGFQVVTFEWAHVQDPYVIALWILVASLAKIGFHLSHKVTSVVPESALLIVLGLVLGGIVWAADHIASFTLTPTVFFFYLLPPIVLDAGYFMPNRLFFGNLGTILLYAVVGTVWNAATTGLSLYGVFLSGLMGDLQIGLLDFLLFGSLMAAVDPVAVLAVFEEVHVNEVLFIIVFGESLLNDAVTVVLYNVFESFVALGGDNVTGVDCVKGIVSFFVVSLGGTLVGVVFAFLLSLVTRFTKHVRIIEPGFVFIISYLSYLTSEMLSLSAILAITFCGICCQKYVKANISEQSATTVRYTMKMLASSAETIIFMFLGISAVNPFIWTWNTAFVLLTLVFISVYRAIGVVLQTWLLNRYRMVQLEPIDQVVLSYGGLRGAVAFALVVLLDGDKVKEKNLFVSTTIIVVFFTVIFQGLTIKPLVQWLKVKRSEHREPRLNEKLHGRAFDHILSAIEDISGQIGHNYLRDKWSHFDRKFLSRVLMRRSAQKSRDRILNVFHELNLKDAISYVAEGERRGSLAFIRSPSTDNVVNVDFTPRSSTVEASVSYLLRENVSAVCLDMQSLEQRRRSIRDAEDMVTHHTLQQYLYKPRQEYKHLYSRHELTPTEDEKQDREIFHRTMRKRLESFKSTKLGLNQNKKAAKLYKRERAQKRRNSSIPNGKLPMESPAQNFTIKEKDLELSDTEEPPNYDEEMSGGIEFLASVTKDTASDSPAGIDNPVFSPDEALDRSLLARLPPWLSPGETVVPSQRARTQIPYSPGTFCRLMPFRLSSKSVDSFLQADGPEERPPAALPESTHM
Assay: Recovery of intracellular pH (pHi) after acidification in LAP1 cells stably expressing NHE3 (BCECF fluorescence, FLIPR)
Format: cell-based
Details: LAP1 cells stably expressing NHE3; pH recovery after acidification; range 1 is % inhibition at 10 μM; read-out: Activity range (inhibitory effect on NHE3)

In [3]: df
Out[3]:
                                   compound                             subjectoftest            result
0  N[C@@H]1CCCN([C@@H]2Cc3ccccc3[C@H]2Oc2ccncc2)C1 (racemic) [Example 86]  sodium-proton exchanger of subtype 3 (NHE3) (Homo sapiens, UniProt P48764)  1000 to 10000 nM

For reference, reported IC50 for CC(=O)Nc1ccc(OC2c3ccccc3CC2N2CCCC2)cc1 (racemic) [Example 666] stands at 1000 to 10000 nM

The compound identified as CC(=O)Nc1cccc(O[C@H]2c3cc(F)cc(Cl)c3C[C@@H]2N2CCNCC2)c1 (racemic) [Example 650] registered its IC50 at < 1000 nM

Lab note: O=C1CSC(=O)N1c1ccc(O[C@H]2c3cc(Cl)cc(Cl)c3C[C@@H]2N2CC[C@@H](O)C2)cc1 [Example 428] gave IC50 of < 1000 nM
